- Test system: lung cancer cells (A549)
- test-details: In vitro cytotoxicity test, MTT assay, lung cancer cells
- Assay type: cell-based
- setup-conditions: Homo sapiens, 72 h incubation
Task for the reader: assign each of the following compounds its reported GI50.
Provide the reading as a plain figure in µM.

Prompt line: Which GI50 value belongs to CCc1c2c(nc3ccc(OC(=O)N4CCC(N5CCCCC5)CC4)cc13)-c1cc3c(c(=O)n1C2)COC(=O)[C@]3(O)CC [Irinotecan, irinotecan, reference compound] ?
Response line: 0.0581

Prompt line: Which GI50 value belongs to CCCCCCCCCCCCCCCCOC(=O)[C@@]1(C)CCc2c(C)c(OC(=O)CCC(=O)Oc3ccc4nc5c(c(CC)c4c3)Cn3c-5cc4c(c3=O)COC(=O)[C@]4(O)CC)c(C)c(C)c2O1 ?
Response line: 0.169

Prompt line: Which GI50 value belongs to CCCCCCOC(=O)[C@@]1(C)CCc2c(C)c(OC(=O)CCC(=O)Oc3ccc4nc5c(c(CC)c4c3)Cn3c-5cc4c(c3=O)COC(=O)[C@]4(O)CC)c(C)c(C)c2O1 ?
Response line: 4.6

Prompt line: Which GI50 value belongs to CCCCCCCCCCCCOC(=O)[C@@]1(C)CCc2c(C)c(OC(=O)CCC(=O)Oc3ccc4nc5c(c(CC)c4c3)Cn3c-5cc4c(c3=O)COC(=O)[C@]4(O)CC)c(C)c(C)c2O1 ?
Response line: 2.1
